# System: Colo205-TCF/LEF-Luciferase (Luc) tumor
# protocol_notes: In vivo inhibition of TCF/LEF reporter activity in Colo-205 tumors
# Design: concentration or dose not given beside the values
# test_conditions: TCF/LEF luciferase reporter in Colo-205 tumors, nu/nu mice, oral gavage
measured_property: Percent Remaining Activity at 8 hrs after Dosing
Respond with a number, then the unit of measure.

Examples with answers:
Cc1nc(N[C@@H]2CCc3nn(Cc4ccc(C(F)(F)F)nc4)cc32)nc2c1NC(=O)[C@H](C(C)C)N2C	91%
Cc1nc(NCc2cnn(Cc3ccc(C(F)(F)F)nc3)c2)nc2c1NC(=O)[C@H](C(C)C)N2C	36%
Cc1nc(NCc2cnn([C@@H](C)c3ccc(C(F)(F)F)nc3)c2)nc2c1NC(=O)[C@H](C)N2C	22%
Cc1nc(NCc2cnn(Cc3ccc(F)nc3)c2)nc2c1NC(=O)[C@H](C)N2C	30%

Okay, next one:
Exercise: Need Percent Remaining Activity at 8 hrs after Dosing of Cc1nc(NCc2cnn(Cc3ccc(C(F)F)nc3)c2)nc2c1NC(=O)[C@H](C1CC1)N2C , thanks.
Key: 53%
